System: mouse p16Ink4a+/- lung fibroblasts (INKBRITE, bleomycin-injured)
experimental protocol: GFP- (p16Ink4a-) cell count relative to negative-control wells (fold of vehicle); higher = more p16Ink4a- cells surviving
run parameters: 1 µM; 3 days
In all, about 1,800 compounds were measured (“GFP- (p16Ink4a-) cell count relative to negative-control wells”: median about 0.99, lowest 2% from about 0.5 on). The list comes from a sample in which the lowest values are over-represented; it also holds close analogues and randomly drawn compounds.
Examples of compounds with documented GFP- follow.
readout label: GFP-

compound: OC[C@@H](O)CN1CCN(c2ccccc2)CC1 [Levodropropizine]
readout label: GFP-
readout value: 1.05
//
compound: CN1CCOC(c2ccccc2)c2ccccc2C1 (configuration not stated) [Nefopam]
readout label: GFP-
readout value: 1.1
//
compound: CC(C)N(CCCNC(=O)Nc1ccc(C(C)(C)C)cc1)C[C@H]1O[C@@H](n2cc(Br)c3c(N)ncnc32)[C@H](O)[C@@H]1O
readout label: GFP-
readout value: 1.01
//
compound: Cc1ccccc1N1C(=O)c2cc(S(N)(=O)=O)c(Cl)cc2NC1C (configuration not stated) [Metolazone]
readout label: GFP-
readout value: 0.905
//
compound: Cc1c(C(=O)NN2CCCCC2)nn(-c2ccc(Cl)cc2Cl)c1-c1ccc(I)cc1
readout label: GFP-
readout value: 1.06
//
compound: Nc1ncn([C@@H]2O[C@H](CO)[C@@H](O)[C@H]2O)c(=O)n1 [5-azacytidine, Azacitidine]
readout label: GFP-
readout value: 0.758
//
compound: Cc1cc(C)c2c(c1)[C@@H](N(Cc1cc(C(F)(F)F)cc(C(F)(F)F)c1)c1nnn(C)n1)CCCN2C[C@H]1CC[C@H](C(=O)O)CC1 [Evacetrapib]
readout label: GFP-
readout value: 0.993
//
compound: Sc1ncnc2[nH]cnc12 [Mercaptopurine]
readout label: GFP-
readout value: 1.05
//
compound: C=CCc1ccc(O)c(-c2cc(CC=C)ccc2O)c1 [Magnolol]
readout label: GFP-
readout value: 0.993
//
compound: CC[C@]1(O)C[C@@H]2CN(CCc3c([nH]c4ccccc34)[C@@](C(=O)OC)(c3cc4c(cc3OC)N(C=O)[C@@H]3C45CCN4CC=C[C@](CC)([C@H]45)[C@@H](OC(C)=O)[C@]3(O)C(=O)OC)C2)C1 (some centres not stated) [Vincristine]
readout label: GFP-
readout value: 0.699
//
compound: CC1CCN(CC[C@H]2CCCN2S(=O)(=O)c2cccc(O)c2)CC1
readout label: GFP-
readout value: 0.862
//
compound: Cn1nc(C(C)(C)C)cc1C(=O)N[C@@H](Cc1cccc(Cl)c1)C(=O)NCC#N [Cathepsin Inhibitor 1]
readout label: GFP-
readout value: 1.01
//
compound: CC1(C)CCC2=C(O1)c1ccccc1C(=O)C2=O [beta-Lapachone]
readout label: GFP-
readout value: 1.08
//
compound: Cn1c(=O)cc(N2CCC[C@@H](N)C2)n(Cc2ccccc2C#N)c1=O [Alogliptin]
readout label: GFP-
readout value: 0.943
//
compound: COc1nc(C)cnc1NS(=O)(=O)c1cccnc1-c1ccc(-c2nnco2)cc1 [Zibotentan]
readout label: GFP-
readout value: 1.19
//
compound: COC(=O)Nc1nc2cc(C(=O)c3ccc(F)cc3)ccc2[nH]1 [Flubendazole]
readout label: GFP-
readout value: 0.933
//
compound: O=C1c2cccc(O)c2C(=O)c2c(O)cc(CO)cc21 [Aloe-emodin]
readout label: GFP-
readout value: 1.13
